- tested-on: Dual specificity tyrosine-phosphorylation-regulated kinase 1A (Homo sapiens, UniProt Q13627)
- experiment-description: Inhibition of N-terminal 6His-tagged recombinant human DYRK1A ([…] residues) expressed in Escherichia coli BL21(DE3) using RARPGTPALRE as substrate incubated for 60 mins in presence of ATP/NADH by enzymatic assay

smiles-data	output-unit	IC50
COc1c(CC=C(C)C)c(O)cc2oc(-c3ccc(O)cc3O)cc12	µM	12.6

* * *

Listing of entries alongside the reported IC50.
- tested-on: Dual specificity tyrosine-phosphorylation-regulated kinase 1A (Homo sapiens, UniProt Q13627)
- experiment-description: Inhibition of DYRK1A (unknown origin) using KKISGRLSPIMTEQ as substrate incubated for 30 mins in presence of ATP by ADP-Glo assay
readout-name: IC50 (nM)

compound	output-unit	censoring-sign	measured-value
O=C1c2c([nH]c3c(Cl)cccc23)CCC1N1CCCCC1 (configuration not stated)	nM	>	10000
O=C1CCCc2[nH]c3c(Cl)cccc3c21	nM	=	1600

Origin of values: ChEMBL document CHEMBL5136986
